- Test system: Escherichia coli TOP10;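 also: peptides expressed intracellularly from a pBAD plasmid library in pooled LB shake-flask culture, induced with 0.3% L-arabinose, DNA abundance read by NGS, three biological replicates, DESeq2 with apeglm shrinkage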
- assay notes: shrunken log2 fold change of peptide-encoding DNA abundance (4.5 h post-induction vs induction); higher = less antimicrobial activity (less host growth inhibition)
- experimental setup: time post-induction: 4.5 h; library: site-saturation at positions 5, 18, 19, 20
Category scheme (shrunken log2 fold change): low range: < -0.1; mid range: ≥ -0.1 and < 0.1; high range: ≥ 0.1

- residue string: "RRIRQRPPRLPRPRPRPDAGPRP"
  group: "mid range"
- residue string: "RRIRTRPPRLPRPRPRPNWSPRP"
  group: "mid range"
- residue string: "RRIRHRPPRLPRPRPRPEQRPRP"
  group: "high range"
- residue string: "RRIRPRPPRLPRPRPRPGKMPRP"
  group: "mid range"
- residue string: "RRIRDRPPRLPRPRPRPTLQPRP"
  group: "high range"
- residue string: "RRIRMRPPRLPRPRPRPLYDPRP"
  group: "mid range"
- residue string: "RRIRRRPPRLPRPRPRPKPIPRP"
  group: "high range"
- residue string: "RRIRQRPPRLPRPRPRPGTNPRP"
  group: "mid range"
- residue string: "RRIRQRPPRLPRPRPRPGREPRP"
  group: "high range"
- residue string: "RRIRGRPPRLPRPRPRPLGSPRP"
  group: "high range"
- residue string: "RRIRTRPPRLPRPRPRPEHSPRP"
  group: "low range"
- residue string: "RRIRGRPPRLPRPRPRPHFKPRP"
  group: "high range"
- residue string: "RRIRHRPPRLPRPRPRPHCPPRP"
  group: "low range"
- residue string: "RRIRHRPPRLPRPRPRPRPPPRP"
  group: "high range"
- residue string: "RRIRSRPPRLPRPRPRPFPIPRP"
  group: "mid range"
- residue string: "RRIRGRPPRLPRPRPRPYPAPRP"
  group: "high range"
- residue string: "RRIRKRPPRLPRPRPRPEKVPRP"
  group: "high range"
- residue string: "RRIRTRPPRLPRPRPRPLHTPRP"
  group: "low range"
- residue string: "RRIRRRPPRLPRPRPRPRNNPRP"
  group: "low range"
- residue string: "RRIRTRPPRLPRPRPRPQPYPRP"
  group: "low range"
- residue string: "RRIRWRPPRLPRPRPRPENKPRP"
  group: "low range"
- residue string: "RRIRARPPRLPRPRPRPTGWPRP"
  group: "high range"
- residue string: "RRIRHRPPRLPRPRPRPMVWPRP"
  group: "mid range"
- residue string: "RRIRKRPPRLPRPRPRPWRVPRP"
  group: "high range"
- residue string: "RRIRDRPPRLPRPRPRPALWPRP"
  group: "high range"
- residue string: "RRIRQRPPRLPRPRPRPLARPRP"
  group: "high range"
- residue string: "RRIRRRPPRLPRPRPRPGSYPRP"
  group: "mid range"
- residue string: "RRIRTRPPRLPRPRPRPTVPPRP"
  group: "mid range"
- residue string: "RRIRDRPPRLPRPRPRPMVDPRP"
  group: "mid range"
- residue string: "RRIRMRPPRLPRPRPRPWVQPRP"
  group: "mid range"
- residue string: "RRIRDRPPRLPRPRPRPAYQPRP"
  group: "low range"
- residue string: "RRIRSRPPRLPRPRPRPLNTPRP"
  group: "low range"
- residue string: "RRIRTRPPRLPRPRPRPNLNPRP"
  group: "low range"
- residue string: "RRIRVRPPRLPRPRPRPTVIPRP"
  group: "low range"
- residue string: "RRIRPRPPRLPRPRPRPFGNPRP"
  group: "low range"
- residue string: "RRIRMRPPRLPRPRPRPGDIPRP"
  group: "mid range"
- residue string: "RRIRCRPPRLPRPRPRPHVYPRP"
  group: "low range"
- residue string: "RRIRLRPPRLPRPRPRPRRRPRP"
  group: "high range"
- residue string: "RRIRWRPPRLPRPRPRPKGKPRP"
  group: "mid range"
- residue string: "RRIRVRPPRLPRPRPRPKDPPRP"
  group: "low range"
- residue string: "RRIRHRPPRLPRPRPRPHVIPRP"
  group: "low range"
- residue string: "RRIRCRPPRLPRPRPRPLDLPRP"
  group: "mid range"
- residue string: "RRIRERPPRLPRPRPRPESAPRP"
  group: "mid range"
- residue string: "RRIRSRPPRLPRPRPRPSNMPRP"
  group: "low range"
- residue string: "RRIRIRPPRLPRPRPRPPGFPRP"
  group: "high range"
- residue string: "RRIRSRPPRLPRPRPRPQIIPRP"
  group: "low range"
- residue string: "RRIRGRPPRLPRPRPRPPVVPRP"
  group: "high range"
- residue string: "RRIRWRPPRLPRPRPRPRGLPRP"
  group: "high range"
- residue string: "RRIRDRPPRLPRPRPRPNKCPRP"
  group: "low range"
- residue string: "RRIRTRPPRLPRPRPRPVWSPRP"
  group: "mid range"
- residue string: "RRIRKRPPRLPRPRPRPDELPRP"
  group: "high range"
- residue string: "RRIRFRPPRLPRPRPRPSVEPRP"
  group: "low range"
- residue string: "RRIRARPPRLPRPRPRPEDRPRP"
  group: "high range"
- residue string: "RRIRFRPPRLPRPRPRPHEMPRP"
  group: "mid range"

Recorded values, source the supplement of paper PMC9112550.
